- study_target: BRD4 (BDII_E352-M457) (Homo sapiens)
- Construct: protocol; made in house
- assay_overview: TR-FRET bromodomain binding assay, second bromodomain of BRD4
- condition_context: TR-FRET assay protocol E (compound 9.19 μM-150 pM); 30 nM probe
measured_metric: Ki (nM)

Please review the following examples before continuing.
{"compound": "CCS(=O)(=O)c1ccc2c(c1)-c1cn(C)c(=O)c3[nH]cc(c13)CN2CC1CC1 [Example 2]", "Ki [nM]": 8.36}
{"compound": "CC(C)CC1Nc2ccc(CS(C)(=O)=O)cc2-c2cn(C)c(=O)c3[nH]cc1c23 (racemic) [Example 19]", "Ki [nM]": 43.8}
{"compound": "Cn1cc2c3c(c[nH]c3c1=O)CN(CC1CCN(C(=O)OC(C)(C)C)C1)c1ccc(CS(C)(=O)=O)cc1-2 (racemic) [Example 25]", "Ki [nM]": 0.847}
{"compound": "Cn1cc2c3c(c[nH]c3c1=O)CN(CC1CCN(C(=O)OC(C)(C)C)CC1)c1ccc(CS(C)(=O)=O)cc1-2 [Example 28]", "Ki [nM]": 1.17}
{"compound": "Cn1cc2c3c(c[nH]c3c1=O)CNc1ccc(S(C)(=O)=O)cc1-2 [Example 4]", "Ki [nM]": 3090}

a = CCCCN1Cc2c[nH]c3c(=O)n(C)cc(c23)-c2cc(CS(C)(=O)=O)ccc21 [Example 24]
b = Cn1cc2c3c(c[nH]c3c1=O)CN(C1CCC(F)(F)CC1)c1ccc(CS(C)(=O)=O)cc1-2 [Example 30]
Task item: Hello, I am sorting some records. Could you say if a or b has the smaller Ki value? State the label of the item chosen.
Reply: a
(a: 0.801 nM, b: 1.36 nM)

a = Cn1cc2c3c(c[nH]c3c1=O)CN(CC1CC1)c1ncc(S(N)(=O)=O)cc1-2 [Example 10]
b = COCCC1c2c[nH]c3c(=O)n(C)cc(c23)-c2cc(CS(C)(=O)=O)ccc2N1CC1CC1 (racemic) [Example 15]
Task item: Could you check which of a and b has a smaller value for Ki? State your choice using its label.
Reply: b
(b: 0.631 nM, a: 5.99 nM)

a = COC(=O)CCC1c2c[nH]c3c(=O)n(C)cc(c23)-c2cc(CS(C)(=O)=O)ccc2N1CC1CC1 (stereo not drawn) [Example 14]
b = COC(=O)CCC1Nc2ccc(CS(C)(=O)=O)cc2-c2cn(C)c(=O)c3[nH]cc1c23 (racemic) [Example 17]
c = Cn1cc2c3c(c[nH]c3c1=O)C(/C=C/c1ccc(F)cc1)Nc1ccc(CS(C)(=O)=O)cc1-2 (racemic) [Example 20]
d = CCC1c2c[nH]c3c(=O)n(C)cc(c23)-c2cc(S(=O)(=O)CC)ccc2N1CC1CC1 (stereo not drawn) [Example 3]
Task item: Reorder: Ki, max to min. State the ranking by listing the labels in the requested order.
Reply: b, c, d, a

I = CCS(=O)(=O)Nc1cnc2c(c1)-c1cn(C)c(=O)c3[nH]cc(c13)CN2c1ccc(F)cc1F [Example 23]
II = Cn1cc2c3c(c[nH]c3c1=O)C(Cc1ccccc1)Nc1ccc(CS(C)(=O)=O)cc1-2 (stereo not drawn) [Example 16]
Task item: Name the one with the greater Ki value, either I or II as given. Label of pick, please.
Reply: II

----------
- study_target: BRD4 (BDI_K57-E168) (Homo sapiens, UniProt O60885)
- Construct: BD1: amino acids K57-E168; made in house
- assay_overview: TR-FRET bromodomain binding assay, first bromodomain of BRD4
- condition_context: TR-FRET assay protocol G (compound 0.92 μM-15 pM); 100 nM probe
measured_metric: Ki (nM)

In the examples that follow, each entry is paired with its recorded Ki.
{"molecule": "Cn1cc2c3c(c[nH]c3c1=O)C(CN1C(=O)c3ccccc3C1=O)N(c1ccc(F)cc1F)c1ccc(CS(C)(=O)=O)cc1-2 (stereo not shown) [Example 117]", "unit_descriptor": "nM", "Ki": 72.3}
{"molecule": "CC(C)CNC(=O)C1c2c[nH]c3c(=O)n(C)cc(c23)-c2cc(CS(C)(=O)=O)ccc2N1c1ccc(F)cc1F (stereo not shown) [Example 161]", "unit_descriptor": "nM", "Ki": 32.1}
{"molecule": "CCNC(=O)c1[nH]c2c(=O)n(C)cc3c2c1CN(c1ccc(C#N)cc1)c1ccc(CS(C)(=O)=O)cc1-3 [Example 203]", "unit_descriptor": "nM", "Ki": 0.99}
{"molecule": "COCC(C)N1Cc2c[nH]c3c(=O)n(C)cc(c23)-c2cc(CS(C)(=O)=O)ccc21 (stereo not shown) [Example 185]", "unit_descriptor": "nM", "Ki": 4.19}
{"molecule": "Cn1cc2c3c(c[nH]c3c1=O)C(C1CCOCC1)N(c1ccc(F)cc1F)c1ccc(CS(C)(=O)=O)cc1-2 (stereo not shown) [Example 228]", "unit_descriptor": "nM", "Ki": 24.5}

P = Cn1cc2c3c(c[nH]c3c1=O)C(CCCOc1ccccc1)N(c1ccc(F)cc1F)c1ccc(CS(C)(=O)=O)cc1-2 (stereo not shown) [Example 145]
Q = CN(C)C(=O)CCC1c2c[nH]c3c(=O)n(C)cc(c23)-c2cc(CS(C)(=O)=O)ccc2N1c1ccc(F)cc1F (stereo not shown) [Example 119]
Task item: Larger number for Ki: P , or Q ? Please indicate the selected item by its label.
Reply: P

a = COCCCC1c2c[nH]c3c(=O)n(C)cc(c23)-c2cc(CS(C)(=O)=O)ccc2N1c1ccc(F)cc1F (stereo not shown) [Example 147]
b = COC(=O)CNC(=O)C1c2c[nH]c3c(=O)n(C)cc(c23)-c2cc(CS(C)(=O)=O)ccc2N1c1ccc(F)cc1F (stereo not shown) [Example 155]
Task item: Between these two entries, a and b , state which has the higher Ki. // return label of chosen record
Reply: b

----------
- study_target: BRD4 (BDII_E352-M457) (Homo sapiens)
- Construct: protocol; made in house
- assay_overview: TR-FRET bromodomain binding assay, second bromodomain of BRD4
- condition_context: TR-FRET assay protocol G (compound 0.92 μM-15 pM); 30 nM probe
pKi: −log10 of the molar value.
measured_metric: pKi

Would you please look over these solved cases?
{"compound": "Cn1cc2c3c(c[nH]c3c1=O)CN(CC(C)(C)CN1CCOCC1)c1ccc(CS(C)(=O)=O)cc1-2", "pKi": 8.04}
{"compound": "COC(=O)CCCCC1c2c[nH]c3c(=O)n(C)cc(c23)-c2cc(CS(C)(=O)=O)ccc2N1c1ccc(F)cc1F (stereo not shown)", "pKi": 8.95}

P = [2H]C1([2H])c2c[nH]c3c(=O)n(C)cc(c23)-c2cc(CS(C)(=O)=O)ccc2N1c1ccc(F)cc1F
Q = Cn1cc2c3c(c[nH]c3c1=O)C(C(=O)NCCC#N)N(c1ccc(F)cc1F)c1ccc(CS(C)(=O)=O)cc1-2 (racemic)
Task item: Field: entry with larger pKi (options P / Q ). Provide the label of your selected option as the answer.
Reply: P

----------
- study_target: BRD4 (BDI_K57-E168) (Homo sapiens)
- Construct: BD1: amino acids K57-E168; made in house
- assay_overview: TR-FRET bromodomain binding assay, first bromodomain of BRD4
- condition_context: TR-FRET assay protocol G (compound 0.92 μM-15 pM); 100 nM probe
measured_metric: Ki (nM)

// below: answered molecules
{"molecule": "Cn1cc2c3c(c[nH]c3c1=O)C(C(=O)NC1(C)CC1)N(c1ccc(F)cc1F)c1ccc(CS(C)(=O)=O)cc1-2 (racemic) [Example 167]", "study_target": "BRD4 (BDI_K57-E168) (Homo sapiens)", "Ki, nM": 69.2}
{"molecule": "Cn1cc2c3c(c[nH]c3c1=O)CN(C(=O)Nc1ccc(F)cc1F)c1ccc(CS(C)(=O)=O)cc1-2 [Example 68]", "study_target": "BRD4 (BDI_K57-E168) (Homo sapiens)", "Ki, nM": 12.7}
{"molecule": "CCNC(=O)c1[nH]c2c(=O)n(C)cc3c2c1CN(c1ccc(Cl)cc1)c1ccc(CS(C)(=O)=O)cc1-3 [Example 59]", "study_target": "BRD4 (BDI_K57-E168) (Homo sapiens)", "Ki, nM": 3.1}
{"molecule": "Cn1cc2c3c(c[nH]c3c1=O)C(c1cccc3ccccc13)N(c1ccc(F)cc1F)c1ccc(CS(C)(=O)=O)cc1-2 (centres unmarked) [Example 217]", "study_target": "BRD4 (BDI_K57-E168) (Homo sapiens)", "Ki, nM": 193}
{"molecule": "Cn1cc2c3c(c[nH]c3c1=O)C(C(=O)NCc1cocn1)N(c1ccc(F)cc1F)c1ccc(CS(C)(=O)=O)cc1-2 (centres unmarked) [Example 163]", "study_target": "BRD4 (BDI_K57-E168) (Homo sapiens)", "Ki, nM": 57.4}
{"molecule": "Cn1cc2c3c(c[nH]c3c1=O)C(CN)N(c1ccc(F)cc1F)c1ccc(CS(C)(=O)=O)cc1-2 (centres unmarked) [Example 129]", "study_target": "BRD4 (BDI_K57-E168) (Homo sapiens)", "Ki, nM": 16.2}
{"molecule": "Cn1cc2c3c(c[nH]c3c1=O)C(CCN1C(=O)c3ccccc3C1=O)N(c1ccc(F)cc1F)c1ccc(CS(C)(=O)=O)cc1-2 (racemic) [Example 227]", "study_target": "BRD4 (BDI_K57-E168) (Homo sapiens)", "Ki, nM": 7.94}
{"molecule": "CCCN1Cc2c[nH]c3c(=O)n(C)cc(c23)-c2cc(F)cc(F)c21 [Example 48]", "study_target": "BRD4 (BDI_K57-E168) (Homo sapiens)", "Ki, nM": 1.12}
{"molecule": "CN1CCC(N2Cc3c[nH]c4c(=O)n(C)cc(c34)-c3cc(CS(C)(=O)=O)ccc32)C1 (centres unmarked) [Example 187]", "study_target": "BRD4 (BDI_K57-E168) (Homo sapiens)", "Ki, nM": 5.74}

A = Cn1cc2c3c(c(C#N)[nH]c3c1=O)CN(c1ccc(Cl)cc1)c1ccc(CS(C)(=O)=O)cc1-2 [Example 199]
B = Cn1cc2c3c(c[nH]c3c1=O)C(C(=O)NCCO)N(c1ccc(F)cc1F)c1ccc(CS(C)(=O)=O)cc1-2 (centres unmarked) [Example 162]
C = Cn1cc2c3c(c[nH]c3c1=O)C(CN1C(=O)c3ccccc3C1=O)N(c1ccc(F)cc1F)c1ccc(CS(C)(=O)=O)cc1-2 (centres unmarked) [Example 205]
D = CNC(=O)c1cc(CS(C)(=O)=O)cc2c1N(c1ccc(F)cc1F)Cc1c[nH]c3c(=O)n(C)cc-2c13 [Example 241]
E = Cn1cc2c3c(c[nH]c3c1=O)CN(c1ccc(F)cc1F)c1ccc(CS(C)(=O)=O)cc1-2 [Example 12]
Task item: Arrange these 5 molecules in increasing order of Ki. Respond with the label ranking, as requested.
Reply: A, E, D, B, C
